- testSystem: PIK3CB;PIK3CG;PIK3CD;PIK3CA (human)
- procedureText: Inhibition of PIK3CA/PIK3CB/PIK3CD/PIK3CG Kinase Activity
observedProperty: IC50 (nM)

# example entries with known answers
1) O=C(O)c1cc(NCCO)c2nc(N3CCOCC3)nc(-c3ccccc3O)c2n1 :: 82
2) O=C(O)c1ccc2nc(N3CCOCC3)nc(-c3ccc(O)cc3)c2n1 :: 855
3) COCCN(C)c1cc(C(=O)O)nc2c(-c3cc(O)cc(F)c3)nc(N3CCOCC3)nc12 :: 19
4) CN(C)c1cc(C(=O)O)nc2c(-c3cccc(C#N)c3)nc(N3CCOCC3)nc12 :: 1100
5) CN(C)c1cc(C(=O)O)nc2c(-c3ccccc3O)nc(N3CCOCC3)nc12 :: 23
6) CN(C)c1cc(C(=O)O)nc2c(-c3cccc4[nH]ccc34)nc(N3CCOCC3)nc12 :: 132

P: O=C(O)c1cc(-c2cccc3ccccc23)c2nc(N3CCOCC3)nc(-c3cccc(O)c3)c2n1
Q: COCCN(C)c1cc(C(=O)O)nc2c(-c3ccc(CO)cc3)nc(N3CCOCC3)nc12
Look at P and Q . Which one has the lower recorded IC50 number? Output the label that corresponds to your choice.
P

* * *

- testSystem: PIK3CB;PIK3CG;PIK3CD;PIK3CA (human) (UniProt P48736)
- procedureText: Inhibition of PIK3CA/PIK3CB/PIK3CD/PIK3CG Kinase Activity
observedProperty: IC50 (nM)

# example entries with known answers
1. COCCN(C)c1cc(C(=O)O)nc2c(-c3ccc4[nH]ccc4c3)nc(N3CCOCC3)nc12 :: 169
2. CS(=O)(=O)c1cc(C(=O)O)nc2c(-c3cc(O)cc(F)c3)nc(N3CCOCC3)nc12 :: 15
3. COCc1cccc(-c2nc(N3CCOCC3)nc3c(NCCO)cc(C(=O)O)nc23)c1 :: 2490
4. CNc1cc(C(=O)O)nc2c(-c3cccc4[nH]ccc34)nc(N3CCOCC3)nc12 :: 780
5. COCc1cccc(-c2nc(N3CCOCC3)nc3c(N(C)CCO)cc(C(=O)O)nc23)c1 :: 1850
6. CN(CCO)c1cc(C(=O)O)nc2c(-c3ccc(F)cc3O)nc(N3CCOCC3)nc12 :: 220
7. COCCN(C)c1cc(C(=O)O)nc2c(-c3ccc(F)cc3O)nc(N3CCOCC3)nc12 :: 62
8. CN(C)c1cc(C(=O)O)nc2c(-c3cccc(CO)c3)nc(N3CCOCC3)nc12 :: 34
9. O=C(O)c1cc(NCCO)c2nc(N3CCOCC3)nc(-c3cccc(CO)c3)c2n1 :: 27
10. COc1ccccc1-c1cc(C(=O)O)nc2c(-c3cccc(O)c3)nc(N3CCOCC3)nc12 :: 24

A: CNc1cc(C(=O)O)nc2c(-c3cccc(O)c3)nc(N3CCOCC3)nc12
B: COCc1cccc(-c2nc(N3CCOCC3)nc3c(N(C)C)cc(C(=O)O)nc23)c1
Look at A and B . Which one has the lower recorded IC50 number? Output the label that corresponds to your choice.
A

A: CN(CCO)c1cc(C(=O)O)nc2c(-c3cccc4[nH]ccc34)nc(N3CCOCC3)nc12
B: COCCN(C)c1cc(C(=O)O)nc2c(-c3ccc(O)cc3)nc(N3CCOCC3)nc12
C: COCCNc1cc(C(=O)O)nc2c(-c3ccc(O)cc3)nc(N3CCOCC3)nc12
D: COCCN(C)c1cc(C(=O)O)nc2c(-c3cccc(O)c3)nc(N3CCOCC3)nc12
E: Cc1cc(O)ccc1-c1nc(N2CCOCC2)nc2c(N(C)CCO)cc(C(=O)O)nc12
Rank the items in ascending order with respect to IC50. Ranked list of labels, please, in the requested order.
D, A, B, C, E
